From: ChEMBL document CHEMBL3243965

MEASUREMENT_DESCRIPTION: Toxicity in po dosed mouse
Format: organism-based
STATED_CONDITIONS: in vivo
PROPERTY_MEASURED: LD50

stdin: Could you share which LD50 value was measured for OCCc1ccc(N2CCCCC2)cc1 ?
stdout: 1200 mg/kg

stdin: Item under review: CC(CN)c1ccc(N2CCCCC2)c(Cl)c1.Cl (centres undefined) . Reported LD50?
stdout: 600 mg/kg

stdin: // lookup LD50 for CC(C(=O)O)c1ccc(N2CCCCC2)c(Cl)c1 (centres undefined)
stdout: 1200 mg/kg

stdin: I'd like to know its LD50. The compound in question is CC(C(=O)O)c1ccc(N2CCCCC2)cc1 (centres undefined)
stdout: 800 mg/kg

stdin: Report LD50 for CC(C)(CN)c1ccc(N2CCCCC2)cc1.O=C(O)CCC(=O)O please.
stdout: 400 mg/kg
